- Subject of test: Tyrosinase (Agaricus bisporus)
- Sequence (O42713 whole entry): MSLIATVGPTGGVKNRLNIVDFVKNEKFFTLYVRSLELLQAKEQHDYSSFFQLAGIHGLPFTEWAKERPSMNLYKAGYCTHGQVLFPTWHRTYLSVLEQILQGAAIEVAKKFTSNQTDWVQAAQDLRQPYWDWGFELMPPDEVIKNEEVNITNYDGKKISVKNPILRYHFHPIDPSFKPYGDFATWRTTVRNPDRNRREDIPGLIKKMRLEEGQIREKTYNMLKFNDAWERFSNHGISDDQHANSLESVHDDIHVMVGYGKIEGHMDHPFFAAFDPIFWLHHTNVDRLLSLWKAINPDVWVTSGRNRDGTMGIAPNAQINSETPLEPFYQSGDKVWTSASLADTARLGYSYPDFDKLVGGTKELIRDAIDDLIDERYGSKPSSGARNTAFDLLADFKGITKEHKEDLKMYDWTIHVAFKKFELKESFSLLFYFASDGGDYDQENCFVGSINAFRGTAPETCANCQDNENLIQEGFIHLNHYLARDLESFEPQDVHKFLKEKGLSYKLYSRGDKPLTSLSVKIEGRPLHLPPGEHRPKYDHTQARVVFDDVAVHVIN
Result type: Ki (µM)
Write down the numeric answer in µM and omit the unit.

Sample O=C(CCc1ccc(O)cc1)c1c(O)cc(O)cc1O[C@@H]1O[C@H](CO)[C@@H](O)[C@H](O)[C@H]1O ; Ki observed: 64.3
